Origin of values: paper PMC10397247

Target: T1, O11-AA
T1 chain: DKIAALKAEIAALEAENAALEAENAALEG
Assay: two-hybrid library CCmax;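 also: natural log of median RNA to DNA barcode read ratio; higher means stronger binding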
Conditions: mean of both orientations
hey, just use Yes if measured interaction score is less than -1, otherwise No

These solved cases illustrate the format of a correct answer.
DKNAALKAKIAALKAEIAALEAEIAALEG [4H3905-AA] ... Yes
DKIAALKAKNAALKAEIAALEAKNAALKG [4H3016-AA] ... Yes
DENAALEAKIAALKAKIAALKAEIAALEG [4H1385-AA] ... No
DKNAALKAKNAALKAEIAALEAKIAALKG [4H4038-AA] ... Yes
DEIAALEAKNAALKAEIAALEAENAALEG [4H451-AA] ... Yes
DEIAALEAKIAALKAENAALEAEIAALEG [4H337-AA] ... No

Please look at the following binder next.
Task: interaction score strictly < -1 for this binder? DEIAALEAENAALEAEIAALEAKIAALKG [4H134-AA]
Result: Yes
